- studySystem: formaldehyde dehydrogenase (FDH) (Pseudomonas putida, UniProt P46154)
- Sequence (P46154 1-399): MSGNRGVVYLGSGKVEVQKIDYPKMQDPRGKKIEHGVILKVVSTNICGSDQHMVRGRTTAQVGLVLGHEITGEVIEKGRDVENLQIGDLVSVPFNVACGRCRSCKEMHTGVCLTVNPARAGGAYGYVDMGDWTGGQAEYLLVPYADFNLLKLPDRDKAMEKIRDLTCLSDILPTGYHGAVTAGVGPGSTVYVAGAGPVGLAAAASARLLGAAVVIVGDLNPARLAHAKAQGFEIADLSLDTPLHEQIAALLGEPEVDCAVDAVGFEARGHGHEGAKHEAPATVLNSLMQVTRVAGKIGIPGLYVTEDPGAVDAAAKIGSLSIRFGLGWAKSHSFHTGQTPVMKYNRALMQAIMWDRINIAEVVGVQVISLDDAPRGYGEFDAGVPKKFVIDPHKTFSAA
- experimentalProtocol: FDH counterscreen, spectrophotometric assay
- Type: biochemical
- condition: enzyme concentration 50 μM, 200 μM compound concentration
observedProperty: FDH Residual Activity (%)

| molecule | studySystem | measuredNumber |
| --- | --- | --- |
| O=C(O)c1ccnc(C(=O)O)c1 [Compound 5, 2,4-pyridine dicarboxylic acid, reference compound] | formaldehyde dehydrogenase (FDH) (Pseudomonas putida, UniProt P46154) | 100 |
| O=C(O)c1ccnc(C(=O)O)c1-c1ccccc1 | formaldehyde dehydrogenase (FDH) (Pseudomonas putida, UniProt P46154) | 100 |
| O=C(O)c1ccnc(C(=O)O)c1Nc1ccccc1 | formaldehyde dehydrogenase (FDH) (Pseudomonas putida, UniProt P46154) | 83 |
| O=C(O)c1ccnc(C(=O)O)c1Oc1ccccc1 | formaldehyde dehydrogenase (FDH) (Pseudomonas putida, UniProt P46154) | 91 |
| O=C(O)c1ccnc(C(=O)O)c1/C=C/c1ccccc1 | formaldehyde dehydrogenase (FDH) (Pseudomonas putida, UniProt P46154) | 87 |
